# systemUnderTest: T1, rat NK1 receptor (rat, UniProt P14600 1-407)
# T1 construct: whole, on cells; membrane preparations of the transfected cells were used; also called rNK1; rNK-1
# T1 sequence (P14600 whole entry): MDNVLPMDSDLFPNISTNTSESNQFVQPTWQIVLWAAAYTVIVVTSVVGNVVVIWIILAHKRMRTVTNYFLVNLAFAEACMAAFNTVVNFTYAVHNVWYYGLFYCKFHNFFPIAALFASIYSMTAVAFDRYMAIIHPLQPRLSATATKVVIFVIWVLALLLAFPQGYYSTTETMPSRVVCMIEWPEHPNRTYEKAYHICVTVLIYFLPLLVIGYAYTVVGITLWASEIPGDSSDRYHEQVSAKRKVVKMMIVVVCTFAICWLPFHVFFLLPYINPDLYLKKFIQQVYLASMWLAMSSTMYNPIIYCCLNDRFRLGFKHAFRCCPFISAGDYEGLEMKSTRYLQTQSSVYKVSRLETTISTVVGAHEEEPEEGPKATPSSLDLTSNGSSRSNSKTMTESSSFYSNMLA
# assayProcedure: competition vs [3H]Substance P, rNK1 CHO cell membranes
Square brackets hold non-standard residues; d marks the D form. Ends that are not written are not given here. * marks the point of attachment. NH(3,5-(CF3)2-benzyl) = FC(F)(F)c1cc(CN*)cc(C(F)(F)F)c1; OBzl(3,5-(CF3)2) = FC(F)(F)c1cc(CO*)cc(C(F)(F)F)c1; Dmt = Cc1cc(O)cc(C)c1C[C@H](N)C(=O)O; NHBn = c1ccc(CN*)cc1
measuredEndpoint: Ki (nM)
Please reply with the bare figure in nM and do not write the unit itself.

Example results:
>>> measuredresult("Y[dA]GFMPLW-{OBzl(3,5-(CF3)2)} (also called TY005) [TyrDAlaGlyPheMetProLeuTrpOBn(CF3)2]")
0.2
>>> measuredresult("[Dmt][dA]GFMPLW-{NH(3,5-(CF3)2-benzyl)} (also called TY032) [DmtDAlaGlyPheMetProLeuTrpNHBn(CF3)2]")
2.3

Q: May I ask what Ki has been recorded for [Dmt][dA]GFMPLW-NHBn (also called TY034) [DmtDAlaGlyPheMetProLeuTrpNHBn] ?
Ans: 317

Q: Ok, now Y[dA]GFMPLW-{NH(3,5-(CF3)2-benzyl)} (also called TY027) [TyrDAlaGlyPheMetProLeuTrpNHBn(CF3)2]
Ans: 7.27

Q: Ok, now [Dmt][dA]GFMPLW-{OBzl(3,5-(CF3)2)} (also called TY033) [DmtDAlaGlyPheMetProLeuTrpOBn(CF3)2]
Ans: 0.96
